B1: glmS ribozyme (parent)
chain: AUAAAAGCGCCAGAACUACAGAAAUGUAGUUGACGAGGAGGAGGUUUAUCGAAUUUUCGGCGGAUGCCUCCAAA

Variants of: B1
METHOD_SUMMARY: self-cleavage kobs at 10000 uM GlcN6P; higher = faster cleavage; RNA array
CONDITION_NOTES: with glucosamine-6-phosphate
This sample holds only a part of the variants without activity.
Note to self: values exactly at 0.0001 s⁻¹ are fulfilled. So self-cleavage kobs at 10000 uM GlcN6P at or above 0.0001 s⁻¹ is fulfilled, below is not fulfilled.

Has G35C U56G a recorded self-cleavage kobs at 10000 uM GlcN6P greater than or equal to 0.0001 s⁻¹?
not fulfilled

Has C8U A52G G63U a recorded self-cleavage kobs at 10000 uM GlcN6P greater than or equal to 0.0001 s⁻¹?
not fulfilled

Has C16G G43C a recorded self-cleavage kobs at 10000 uM GlcN6P greater than or equal to 0.0001 s⁻¹?
not fulfilled

Has C34U G37U U46C U47A G62A a recorded self-cleavage kobs at 10000 uM GlcN6P greater than or equal to 0.0001 s⁻¹?
not fulfilled

Has C10U A12G G13C a recorded self-cleavage kobs at 10000 uM GlcN6P greater than or equal to 0.0001 s⁻¹?
not fulfilled

Has U46A G60C a recorded self-cleavage kobs at 10000 uM GlcN6P greater than or equal to 0.0001 s⁻¹?
not fulfilled

Has G60U U65A a recorded self-cleavage kobs at 10000 uM GlcN6P greater than or equal to 0.0001 s⁻¹?
not fulfilled

Has G37A G63U A64C a recorded self-cleavage kobs at 10000 uM GlcN6P greater than or equal to 0.0001 s⁻¹?
not fulfilled

Has G29U G32A A39U a recorded self-cleavage kobs at 10000 uM GlcN6P greater than or equal to 0.0001 s⁻¹?
fulfilled

Has C11U U56A a recorded self-cleavage kobs at 10000 uM GlcN6P greater than or equal to 0.0001 s⁻¹?
fulfilled

Has C11U G60A a recorded self-cleavage kobs at 10000 uM GlcN6P greater than or equal to 0.0001 s⁻¹?
not fulfilled

Has A39C C50G U55C a recorded self-cleavage kobs at 10000 uM GlcN6P greater than or equal to 0.0001 s⁻¹?
not fulfilled

Has G40U G63U a recorded self-cleavage kobs at 10000 uM GlcN6P greater than or equal to 0.0001 s⁻¹?
not fulfilled

Has G7U C34G G59C a recorded self-cleavage kobs at 10000 uM GlcN6P greater than or equal to 0.0001 s⁻¹?
not fulfilled

Has A6G U49A a recorded self-cleavage kobs at 10000 uM GlcN6P greater than or equal to 0.0001 s⁻¹?
not fulfilled

Has G44U U46A a recorded self-cleavage kobs at 10000 uM GlcN6P greater than or equal to 0.0001 s⁻¹?
fulfilled

Has C8G G44A a recorded self-cleavage kobs at 10000 uM GlcN6P greater than or equal to 0.0001 s⁻¹?
not fulfilled

Has G40U U47A a recorded self-cleavage kobs at 10000 uM GlcN6P greater than or equal to 0.0001 s⁻¹?
fulfilled

Has A39C U69C a recorded self-cleavage kobs at 10000 uM GlcN6P greater than or equal to 0.0001 s⁻¹?
fulfilled

Has U30G U56C a recorded self-cleavage kobs at 10000 uM GlcN6P greater than or equal to 0.0001 s⁻¹?
fulfilled

Has U54A G59U a recorded self-cleavage kobs at 10000 uM GlcN6P greater than or equal to 0.0001 s⁻¹?
not fulfilled

Has A12U G29C G41A a recorded self-cleavage kobs at 10000 uM GlcN6P greater than or equal to 0.0001 s⁻¹?
fulfilled

Has U31C G41A a recorded self-cleavage kobs at 10000 uM GlcN6P greater than or equal to 0.0001 s⁻¹?
not fulfilled

Has A6C C70U a recorded self-cleavage kobs at 10000 uM GlcN6P greater than or equal to 0.0001 s⁻¹?
not fulfilled

Has G9C G43C C67U a recorded self-cleavage kobs at 10000 uM GlcN6P greater than or equal to 0.0001 s⁻¹?
not fulfilled

Has `C10U` a recorded self-cleavage kobs at 10000 uM GlcN6P greater than or equal to 0.0001 s⁻¹?
not fulfilled

Has G9C U47G a recorded self-cleavage kobs at 10000 uM GlcN6P greater than or equal to 0.0001 s⁻¹?
not fulfilled

Has U30G G62C a recorded self-cleavage kobs at 10000 uM GlcN6P greater than or equal to 0.0001 s⁻¹?
not fulfilled

Has C10U G32U A64C a recorded self-cleavage kobs at 10000 uM GlcN6P greater than or equal to 0.0001 s⁻¹?
not fulfilled

Has C16A U46C U55C a recorded self-cleavage kobs at 10000 uM GlcN6P greater than or equal to 0.0001 s⁻¹?
not fulfilled

Has U54G C58A C71U a recorded self-cleavage kobs at 10000 uM GlcN6P greater than or equal to 0.0001 s⁻¹?
fulfilled

Has A6U G7C A14G U57C a recorded self-cleavage kobs at 10000 uM GlcN6P greater than or equal to 0.0001 s⁻¹?
not fulfilled

Has G38U U57G C67U C70U a recorded self-cleavage kobs at 10000 uM GlcN6P greater than or equal to 0.0001 s⁻¹?
not fulfilled

Has G13A A42G G43U C70A a recorded self-cleavage kobs at 10000 uM GlcN6P greater than or equal to 0.0001 s⁻¹?
not fulfilled

Has U31G C34U G59A a recorded self-cleavage kobs at 10000 uM GlcN6P greater than or equal to 0.0001 s⁻¹?
not fulfilled
